// provenance: PubChem BioAssay (NCATS)

- assay.details: Quantitative High-Throughput drug screen in 47 multiple myeloma cell lines against the NCATS MIPE library collection: Karpas417_ECACC cell viability assay (AID 1918961); note: potency is the fitted concentration of half-maximal effect
- measurement.conditions: Karpas417 myeloma viability, CellTiter-Glo ATP luminescence, 48 h
Records with an inconclusive call do not appear. The source made the active and inactive calls. Calls come from the whole dose curve; as a rule, active = well fitted cell-killing curve with a large enough effect; inconclusive = small, poorly fitted or top-dose-only effect, or effect the other way; inactive = no such curve, though single readings can be large or run the other way.
quantity.name: Potency

{"molecule": "CCc1c(C(=O)C(N)=O)c2c(OCC(=O)O)cccc2n1Cc1ccccc1", "Potency": "inactive"}
{"molecule": "CC1=C(O)C(=O)C=C2C1=CC=C1[C@@]2(C)CC[C@@]2(C)[C@@H]3C[C@](C)(C(=O)O)CC[C@]3(C)CC[C@]12C", "Potency": "0.743 µM (active)"}
{"molecule": "COc1ccc(CC2NCCc3cc(OC)c(OC)cc32)cc1OC (stereo unspecified)", "Potency": "inactive"}
{"molecule": "C1=C2CCCN[C@H]2[C@@H]2C[C@H]1[C@@H]1CCCCN1C2", "Potency": "inactive"}

List reported Potency for each of these molecules:
1. C[C@@H]1O[C@@H](O[C@@H]2C=C3CC[C@@H]4[C@@H](CC[C@]5(C)[C@H](c6ccc(=O)oc6)CC[C@@]45O)[C@@]3(C)CC2)[C@H](O)[C@H](O)[C@H]1O
2. C[C@@H]1CC[C@@]2(OC1)O[C@H]1C[C@H]3[C@@H]4CC=C5C[C@@H](O[C@@H]6O[C@H](CO)[C@@H](O[C@@H]7O[C@@H](C)[C@H](O)[C@@H](O)[C@@H]7O)[C@H](O)[C@@H]6O[C@@H]6O[C@@H](C)[C@H](O)[C@@H](O)[C@@H]6O)CC[C@]5(C)[C@@H]4CC[C@]3(C)[C@@H]1[C@H]2C
3. CC(C)[C@]12O[C@@H]1[C@@H]1O[C@]13[C@]1(O[C@H]1C[C@@H]1C4=C(CC[C@@]13C)C(=O)OC4)[C@H]2O
4. O=c1[nH]c2ccc(Cl)cc2c(N[C@@H]2CN3CCC2CC3)c1-c1nc2ccccc2[nH]1
5. CN1CCN(c2ccc([N+](=O)[O-])c3no[n+]([O-])c23)CC1
6. Cc1c(C(=O)Nc2cccc(C(F)(F)F)c2)cc(-c2ccccc2)n1CCCN1CCOCC1
7. CC[C@@]1(O)C(=O)OCc2c1cc1n(c2=O)Cc2cc3ccccc3nc2-1
8. COCC1(CO)C(=O)C2CCN1CC2 (stereo unspecified)

RESULT:
1: 0.0148 µM (active); 2: 1.05 µM (active); 3: inactive; 4: 0.332 µM (active); 5: 5.26 µM (active); 6: 7.43 µM (active); 7: 0.296 µM (active); 8: 3.72 µM (active)

# batch size: 2; output Potency per entry
1. O=C1C=CC[C@@H]2[C@H]3CCCN4CCC[C@@H](CN12)[C@@H]34
2. NC1=NC(=O)N2CC12 (stereo unspecified)

RESULT:
inactive
1.66 µM (active)
